experiment: Urine concentration and pharmacokinetics of AITC metabolites after oral AITC (HPLC); type: in vivo; settings: male, Sprague-Dawley, 25 mg/kg, rat urine, n = 5, read-out: T1/2 in urine (converted)

structure.as.smiles | half-life (h)
C=CCNC(=S)SC[C@H](NC(C)=O)C(=O)O | 1.44

* * *

test: Urine concentration and pharmacokinetics of AITC metabolites after oral AITC (HPLC); type: in vivo; conditions: male, Sprague-Dawley, 25 mg/kg, rat urine, n = 5, read-out: AUC (0-8h) in urine
measurement.label: AUC(0-t) (ng·h/mL)

compound | unit.annotation | numeric.result
C=CCNC(=S)SC[C@H](NC(C)=O)C(=O)O [NAC-AITC] | ng·h/mL | 8110

* * *

# half-life listing for each entry below
Test: Plasma pharmacokinetics of AITC metabolites after oral administration of AITC (HPLC)
Assay type: in vivo
Settings: male, Sprague-Dawley; rat plasma, metabolite after oral AITC 25 mg/kg, n = 5; read-out: T1/2 (elimination half-life) (converted)
Protocol: Methanol (700 μL) was added to 300 μL of serum and the mixture was mixed by vortexing for 5 min. […] The internal standards (synthesized metabolites) were added to the plasma samples for validation. Non-compartmental (mode-independent) nutrikinetic parameters were derived using PK Solutions software version 2.0 (Summit Research Services, Montrose, CO, USA). […] The area under the curve (AUC) for the plasma concentration over time was calculated using the trapezoidal rule. […]

structure.as.smiles | half-life (h)
C=CCNC(=S)SC[C@H](NC(=O)CC[C@H](N)C(=O)O)C(=O)NCC(=O)O | 0.92
C=CCNC(=S)SC[C@H](NC(C)=O)C(=O)O | 2.65

* * *

# Cmax listing for each entry below
assay: Plasma pharmacokinetics of AITC metabolites after oral administration of AITC (HPLC); assay type: in vivo; conditions: male, Sprague-Dawley; rat plasma, metabolite after oral AITC 25 mg/kg, n = 5; read-out: Cmax (maximum plasma concentration)

compound | unit.annotation | Cmax
C=CCNC(=S)SC[C@H](NC(=O)CC[C@H](N)C(=O)O)C(=O)NCC(=O)O [GSH-AITC, S-(N-allylthiocarbamoyl)-L-glutathione] | ng/mL | 1470
C=CCNC(=S)SC[C@H](NC(C)=O)C(=O)O [NAC-AITC] | ng/mL | 14000
